Assay: acute oral toxicity in mice, observed during 14 days
Assay type: in vivo, Swiss EOPS mice
Conditions: mouse, in vivo, po, 2000 mg/kg
Assay metric: mortality at 336 h

Challenge: Look up mortality at 336 h for this molecule: "CC(C)(Oc1ccc(Cl)cc1)C(=O)Oc1ccc(Cl)cc1"
Response given: 10%

---

Assay: acute oral toxicity in rats, observed during 14 days
Type: in vivo, Wistar EOPS rats
Conditions: in vivo, rat, 2000 mg/kg
Assay metric: mortality at 336 h (%)
Kindly answer with a numeric value in %, unit omitted.

Challenge: Please give the measured mortality at 336 h for this compound: CC(C)(Oc1ccc(Cl)cc1)C(=O)O [clofibric acid, p-chlorophenoxyisobutyric acid, reference compound]
Response given: 40
